Assay: inhibitors of hydroxyurea-induced Chk1 phosphorylation, primary screen, imaging, HeLa, phospho-Chk1 nuclear intensity (AID 1187); further: test concentration not given here
Details: hydroxyurea-induced phospho-Chk1 immunofluorescence imaging, higher = more signal
Reported z-score values for the following compounds.

| Compound | z-score |
| --- | --- |
| Cc1ccc(S[C@]2(C(=O)NCCCN(C)C)CC(=O)N(Cc3ccccc3C(F)(F)F)[C@@H]2c2ccc(CO)cc2)cc1 | 0.135 |
| C=CC[C@@]12N=C(c3ccc(OCCCO)cc3)O[C@@H]1c1ccccc1N(C)C2=O | 0.444 |
| COc1ccc(CCNC(=O)[C@@]2(Sc3ccc(C)cc3)CC(=O)N(C3Cc4ccccc4C3)[C@@H]2c2ccc(CO)cc2I)cc1 | 0.684 |
| COC(=O)[C@@]1(Cc2ccc(F)cc2)[C@H]2c3cc(C(=O)N(C)C)n(Cc4ccccc4)c3C[C@H]2CN1C(=O)c1ccccc1 | 1.2 |
| COc1cc(Br)cc(C(O)C2C=CC3C(=O)N(C)C(=O)C3N2N2CCCCC2)c1OC (stereo not given) | 0.0293 |

----------
Molecular target: Epidermal growth factor receptor (Homo sapiens) (UniProt P00533)
Sequence (P00533 whole entry, looked up): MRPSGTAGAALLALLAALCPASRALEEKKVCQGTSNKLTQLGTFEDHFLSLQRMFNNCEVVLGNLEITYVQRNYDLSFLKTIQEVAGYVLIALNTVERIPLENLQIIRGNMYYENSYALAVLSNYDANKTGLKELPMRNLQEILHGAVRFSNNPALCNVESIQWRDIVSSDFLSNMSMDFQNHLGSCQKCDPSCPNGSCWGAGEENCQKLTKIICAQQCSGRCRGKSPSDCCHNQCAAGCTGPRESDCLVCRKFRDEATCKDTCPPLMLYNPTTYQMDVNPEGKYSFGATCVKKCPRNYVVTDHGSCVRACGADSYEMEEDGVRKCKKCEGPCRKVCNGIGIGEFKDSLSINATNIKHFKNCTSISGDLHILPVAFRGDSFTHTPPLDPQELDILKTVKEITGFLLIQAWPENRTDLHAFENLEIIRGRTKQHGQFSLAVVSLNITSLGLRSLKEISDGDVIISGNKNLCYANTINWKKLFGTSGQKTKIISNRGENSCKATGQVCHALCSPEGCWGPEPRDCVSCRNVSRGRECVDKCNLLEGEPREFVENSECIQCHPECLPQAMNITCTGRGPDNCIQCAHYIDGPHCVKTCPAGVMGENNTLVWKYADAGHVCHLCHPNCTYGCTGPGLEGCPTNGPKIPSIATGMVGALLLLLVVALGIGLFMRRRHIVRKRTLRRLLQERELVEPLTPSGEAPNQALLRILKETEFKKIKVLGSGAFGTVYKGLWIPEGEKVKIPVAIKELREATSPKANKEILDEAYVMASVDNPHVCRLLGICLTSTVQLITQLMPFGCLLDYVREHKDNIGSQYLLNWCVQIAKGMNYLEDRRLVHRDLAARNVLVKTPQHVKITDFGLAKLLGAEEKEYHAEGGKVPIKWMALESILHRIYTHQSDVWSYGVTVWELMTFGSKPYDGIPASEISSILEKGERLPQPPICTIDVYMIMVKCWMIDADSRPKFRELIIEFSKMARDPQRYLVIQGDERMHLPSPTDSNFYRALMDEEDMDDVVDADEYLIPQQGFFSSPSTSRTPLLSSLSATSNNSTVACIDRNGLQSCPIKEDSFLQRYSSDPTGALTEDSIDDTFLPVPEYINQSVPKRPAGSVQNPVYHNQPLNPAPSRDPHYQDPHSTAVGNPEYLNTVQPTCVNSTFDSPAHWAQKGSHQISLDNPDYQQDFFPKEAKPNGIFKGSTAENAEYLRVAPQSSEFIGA
Assay: EGFR binders on small-molecule microarrays, primary screen, biochemical, small-molecule microarray, 635 nm fluorescence (AID 1104);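 further: score merges 667 nm emission intensity with spot signal to noise over triplicate slides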
Settings: EGFR binding, higher = more signal
Endpoint: composite z-score

| Compound | Experimental System | Readout Number |
| --- | --- | --- |
| CC(C)N1C(=O)[C@@]2(Cc3ccccc31)c1ccccc1C(=O)N(Cc1ccccc1Cl)[C@H]2c1ccc(CO)cc1 | Epidermal growth factor receptor (Homo sapiens) (UniProt P00533) | -1.25 |
| C=CCOC(=O)[C@H]1[C@@H]2C(=O)O[C@@H](c3ccccc3)[C@@H](c3ccccc3)N2[C@@H](c2ccc(OCCOC(=O)[C@@H]3C[C@@H]4C(=O)N[C@@H](CC(C)C)C(=O)N4[C@@H]3c3ccc(O)cc3)cc2)[C@]12C(=O)Nc1ccccc12 | Epidermal growth factor receptor (Homo sapiens) (UniProt P00533) | 0.671 |
| COC(=O)[C@H](Cc1ccccc1)N1CC2=C[C@@H](C3CC3)n3c(=O)n(C)c(=O)n3[C@H]2[C@@H]1[C@@H](O)Cc1ccccc1 | Epidermal growth factor receptor (Homo sapiens) (UniProt P00533) | 0.217 |
| COCCOC(=O)N1C(=O)[C@@]2(c3cc(C#CCNC(N)=O)ccc31)[C@H](C(=O)N1CCN(c3ncccn3)CC1)[C@H]1C(=O)O[C@H](c3ccccc3)[C@H](c3ccccc3)N1[C@@H]2c1ccc(OCCO)cc1 | Epidermal growth factor receptor (Homo sapiens) (UniProt P00533) | 0.498 |
| CCC(CC)C(O)C1C=CC2C(=O)NC(=O)C2N1Nc1ccccn1 (configuration not stated) | Epidermal growth factor receptor (Homo sapiens) (UniProt P00533) | 0.384 |
| COCCOC(=O)N1C(=O)[C@@]2(c3cc(C#CC4(O)CCCCCC4)ccc31)[C@H](c1ccc(OCCO)cc1)N1[C@H](c3ccccc3)[C@H](c3ccccc3)OC(=O)[C@H]1[C@@H]2C(=O)N1CCN(c2ncccn2)CC1 | Epidermal growth factor receptor (Homo sapiens) (UniProt P00533) | 0.334 |
| C=C(C)[C@@H]1CC=C(C(O)C2C=CC3C(=O)N(C)C(=O)C3N2Nc2ccccc2)CC1 (some centres not stated) | Epidermal growth factor receptor (Homo sapiens) (UniProt P00533) | 0.928 |
| CC(C)NC(=O)[C@@]1(C)c2ccccc2C(=O)N(Cc2cc(C(F)(F)F)cc(C(F)(F)F)c2)[C@H]1c1ccc(CO)cc1 | Epidermal growth factor receptor (Homo sapiens) (UniProt P00533) | -0.584 |
| CN(C)CCCC[C@@H]1NC(=O)[C@H]2C[C@@H](C(=O)NCCCCCCN)[C@@H](c3ccc(O)cc3)N2C1=O | Epidermal growth factor receptor (Homo sapiens) (UniProt P00533) | 0.247 |
| O[C@@H](Cc1ccccc1)[C@H]1C2C=CCCC=C2CN1Cc1cccc(Cl)c1 (some centres not stated) | Epidermal growth factor receptor (Homo sapiens) (UniProt P00533) | 0.231 |
| C[C@H]1C2[C@H](Cc3ccccc3)NC(=O)[C@]23C(=O)N[C@H](Cc2ccccc2)C(=O)N2CCC[C@H]2C(=O)NC/C=C\C/C=C/C3[C@@H]2O[C@]12C (some centres not stated) | Epidermal growth factor receptor (Homo sapiens) (UniProt P00533) | -0.0282 |
| Cc1nc2cc(Br)ccc2c(=O)o1 | Epidermal growth factor receptor (Homo sapiens) (UniProt P00533) | 0.427 |
| O=C1C2C=CC(C(O)c3cccc4ccccc34)N(Nc3ccccc3F)C2C(=O)N1c1ccccc1 (configuration not stated) | Epidermal growth factor receptor (Homo sapiens) (UniProt P00533) | 0.172 |
| C=C(COC)C(=O)CC[C@@H](OC(C)=O)c1ccc(CO)o1 | Epidermal growth factor receptor (Homo sapiens) (UniProt P00533) | -0.42 |
| C=C[C@H](OC)[C@@H](OC(=O)Nc1ccc(OC)cc1)c1ccc(O)c(F)c1 | Epidermal growth factor receptor (Homo sapiens) (UniProt P00533) | -1.49 |
| COCCCNC(=O)[C@@H]1c2ccccc2C(=O)N(Cc2ccccc2Cl)[C@H]1c1ccc(CO)cc1 | Epidermal growth factor receptor (Homo sapiens) (UniProt P00533) | 0.245 |
| C=CCNC(=O)[C@@H]1[C@H]2C(=O)O[C@H](c3ccccc3)[C@H](c3ccccc3)N2[C@H](c2ccccc2OCCO)[C@@]12C(=O)N(C(=O)OCCOC)c1ccccc12 | Epidermal growth factor receptor (Homo sapiens) (UniProt P00533) | 0.828 |
| C=CC[C@]1(C(=O)NCc2ccccc2)N=C(c2ccc(OCCCO)cc2)O[C@H]1c1ccccc1N=[N+]=[N-] | Epidermal growth factor receptor (Homo sapiens) (UniProt P00533) | 0.174 |
| COC(=O)[C@@]1(Cc2ccc(OC)cc2)[C@H]2c3cc(C(=O)N(C)C)n(C)c3C[C@H]2CN1C(=O)c1ccccc1 | Epidermal growth factor receptor (Homo sapiens) (UniProt P00533) | 0.534 |
| COc1ccccc1CN1C(=O)c2ccccc2[C@@H](C(=O)NC2CC2)[C@@H]1c1ccc(CO)cc1 | Epidermal growth factor receptor (Homo sapiens) (UniProt P00533) | 0.521 |
| CCCCCCc1nc(-c2ccc(OC)nc2)cc2c1[Si](C(C)C)(C(C)C)O[C@H]2c1ccccc1 | Epidermal growth factor receptor (Homo sapiens) (UniProt P00533) | 0.31 |
| NC(=O)NCC#Cc1ccc2c(c1)[C@]1(C(=O)N2)[C@H](C(N)=O)[C@H]2C(=O)O[C@H](c3ccccc3)[C@H](c3ccccc3)N2[C@@H]1c1ccc(O)cc1 | Epidermal growth factor receptor (Homo sapiens) (UniProt P00533) | -0.858 |

----------
Biological target: Calmodulin-1 (Homo sapiens)
Assay: CALM1 binders on microarrays, EGTA buffer, profiling panel, biochemical, small-molecule microarray, Cy5-labelled CALM1 (AID 1111);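 further: labelled calmodulin applied in Tris saline Tween buffer holding calcium plus EGTA and DTT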
Details: Cy5-CALM1 binding fluorescence, higher = more signal

| Molecule | composite z-score |
| --- | --- |
| COC(=O)[C@@]1(Cc2ccc(F)cc2)[C@H]2c3cc(C(=O)N(C)C)n(Cc4cc(F)c(F)c(F)c4)c3C[C@H]2CN1C(=O)c1ccccc1 | 1.6 |
| COc1cccc(-c2cccc(=O)o2)c1 | -0.753 |
| CN1C(=O)C2C=CC(C(O)c3ccc([N+](=O)[O-])cc3)N(N3CCCCC3)C2C1=O (configuration not stated) | 1.42 |
| CC(CO)N1C(=O)[C@@H]2C3C(=O)OCCC/C=C\[C@H]3OC23C=CCN(C(C)(C)C)C(=O)[C@@H]13 (some centres not stated) | -0.565 |
| CC(C)C(CO)N1C(=O)[C@@H]2C3C(=O)OCCC/C=C\[C@H]3OC23C=CCN(CCN2CCOCC2)C(=O)[C@@H]13 (some centres not stated) | -0.799 |
| N#Cc1ccc(NN2C(C(O)C(c3ccccc3)c3ccccc3)C=CC3C(=O)N(c4ccccc4)C(=O)C32)cc1 (configuration not stated) | 1.87 |
| C=CCOC(=O)[C@H]1[C@@H]2C(=O)O[C@@H](c3ccccc3)[C@@H](c3ccccc3)N2[C@@H](c2ccc(OCCOC(=O)[C@H]3C[C@H]4C(=O)N[C@@H](CCCC[N+](C)(C)C)C(=O)N4[C@H]3c3ccc(O)cc3)cc2)[C@]12C(=O)Nc1ccc(I)cc12 | -0.421 |

----------
Listed here are compounds together with their documented composite z-score.
Biological target: Calmodulin-1 (Homo sapiens) (UniProt P0DP23)
Assay: CALM1 binders on microarrays, EGTA buffer, profiling panel, biochemical, small-molecule microarray, Cy5-labelled CALM1 (AID 1111);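 further: labelled calmodulin applied in Tris saline Tween buffer holding calcium plus EGTA and DTT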
Settings: Cy5-CALM1 binding fluorescence, higher = more signal

| Compound | Experimental System | composite z-score |
| --- | --- | --- |
| CCCCCCc1nc(-c2ccc(OC)nc2)cc2c1[Si](C(C)C)(C(C)C)O[C@H]2c1ccccc1 | Calmodulin-1 (Homo sapiens) (UniProt P0DP23) | -0.0918 |
| CC(=O)n1cc(C(O)C2C=CC3C(=O)N(c4ccccc4)C(=O)C3N2Nc2ccc([N+](=O)[O-])cc2)c2ccccc21 (centres undefined) | Calmodulin-1 (Homo sapiens) (UniProt P0DP23) | 1.73 |
| O=C1C2C=CC(C(O)Cc3ccccc3)N(n3cnnc3)C2C(=O)N1Cc1ccccc1 (centres undefined) | Calmodulin-1 (Homo sapiens) (UniProt P0DP23) | 0.841 |
| C=CCNC(=O)[C@@H]1[C@H]2C(=O)O[C@H](c3ccccc3)[C@H](c3ccccc3)N2[C@H](c2ccc(O)cc2)[C@@]12C(=O)N(C(=O)OCCOC)c1ccc(C#CCNC(N)=O)cc12 | Calmodulin-1 (Homo sapiens) (UniProt P0DP23) | 1.83 |
